System: MS2 coat protein
Protocol Notes: apparent KD of MS2 coat protein; designed switch direction (-1 OFF switch, 1 ON switch): -1; higher = weaker reporter binding
Test Parameters: input ligand: microRNA oligo, concentration not stated
Quantity Measured: apparent KD of MS2 coat protein (nM)
Record the value in nM, omitting the unit from your answer.

stdin: Which value of apparent KD of MS2 coat protein has been reported for GUUGGAUGAGGAUAUCGAGGUUAGUACAUGAGGAUCACCCAUGUUAUCCAGGUGUCGGUUCGAGAAGGCAUUGGAC [LRO-Ex5-14] (Eterna round: R96, puzzle: Exclusion 5) in the records?
stdout: 27.8

stdin: Which measured apparent KD of MS2 coat protein value corresponds to UUUAAGGGAAUUAAGAUCACAUGAGGAUCACCCAUGUAUAUAUAGGAUAUCAGCUCGUUUAGAGCUGAGAAGGAUAUAUACAUA [ExNG3/6-A2] (Eterna round: R96, puzzle: Exclusion NG 3) ?
stdout: 83.8

stdin: So what does the record say about apparent KD of MS2 coat protein for AGAAACUCAAGAGGAUAUCACAUGAGGAUCACCCAUGUAUAGCGCGCUAUGCUAGUCCUCGUAUUUGAGAAGGUUUGAAAUAAG [Mat - Exclusion NG 2 - Mod of JL - D79] (Eterna round: R96, puzzle: Exclusion NG 2) ?
stdout: 12.5

stdin: Quick one: apparent KD of MS2 coat protein of UUUCUUGGGCAAGGAUAUCCUGUGCGGUUCCGGCUCGUGUCUGUCACAUGAGGAUCACCCAUGUGGGAGAAGGUGCCUGCGGUU [Design 83] (Eterna round: R96, puzzle: Exclusion NG 2) ?
stdout: 10.7

stdin: Query: apparent KD of MS2 coat protein; subject: UAAUGUGCGAGAGGAUAUCGUGUACAAAGUACACGAGAAGGCUUCACAUGAGGAUCACCCAUGUAUCGAGGUGAAACACCUUGG [Omei Exc(NG)1 Bv2] (Eterna round: R96, puzzle: Exclusion NG 1)
stdout: 285

stdin: Given ACAUGAGGAUCACCCAUGUUAUGUUGGGUACUAAAUUAUUCGUAGGAUAUCGUAGCUAGUUUGUGCGAGAAGGACGCAUUUUUU [JR_ExcNG3_Sub059] (Eterna round: R96, puzzle: Exclusion NG 3) , state its recorded apparent KD of MS2 coat protein.
stdout: 229

stdin: For the sequence shown here, UACAUGAGGAUCACCCAUGUUUUGUCGUGUAUGGUAUUUAUCUAGGAUAUCAAUUGAUUAAUUUAUGAGAAGGAGAAUAUUAAU [JMF's solution 60] (Eterna round: R96, puzzle: Exclusion NG 3) , give the reported apparent KD of MS2 coat protein.
stdout: 39.1

stdin: Fill in the blank: the reported apparent KD of MS2 coat protein of AGCUAGUCAGGAUAUACAAACAUGUCAAAAGACGUGAAGAGACAUGAGGAUCACCCAUGUAGAAGGGACUAGCA [Mat - Exclusion 2 - JL mod - D13] (Eterna round: R96, puzzle: Exclusion 2) is ____.
stdout: 15.7

stdin: Entry CUGCUCCGUGUAGGAUAUGCAUACCACCACUAUGCAGAAGGACAUGAGGAUCACCCAUGUAUGUUAUUAUCACGUGUAGCGUCC [Design 18] (Eterna round: R96, puzzle: Exclusion NG 1) : reported apparent KD of MS2 coat protein = ?
stdout: 14.9
